Target: T1, human MSLN-FL-his protein (human, UniProt Q13421 296-580)
T1 construct: made in HEK293E cells, purified on nickel column; also called hMSLN-FL-his; human MSLN full-length protein; not shown: His tag
T1 sequence (Q13421 other isoform, or with tags, fused parts or gaps): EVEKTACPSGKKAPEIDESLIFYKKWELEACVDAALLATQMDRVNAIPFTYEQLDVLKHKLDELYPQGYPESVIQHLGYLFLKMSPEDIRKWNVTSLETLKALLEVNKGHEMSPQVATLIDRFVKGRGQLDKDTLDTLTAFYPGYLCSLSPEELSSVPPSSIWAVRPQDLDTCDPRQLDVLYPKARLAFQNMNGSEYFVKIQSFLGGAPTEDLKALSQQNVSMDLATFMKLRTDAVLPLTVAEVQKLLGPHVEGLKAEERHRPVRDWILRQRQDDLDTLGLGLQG
Assay: competitive ELISA; row F8-33.12; also: test concentration or dose not given here
Reported competition rate is given for each of the following binders.
The reply should be a number in %, with the unit left off.

competition rate reading for S009-F8-28.23 (antibody, human IgG1, kappa, V domains shown, human-murine chimeric antibody, human IgG1/kappa constant regions) VH: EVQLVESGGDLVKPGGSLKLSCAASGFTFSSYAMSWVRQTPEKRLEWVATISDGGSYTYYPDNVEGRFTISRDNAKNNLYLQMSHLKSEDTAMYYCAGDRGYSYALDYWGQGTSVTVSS VL: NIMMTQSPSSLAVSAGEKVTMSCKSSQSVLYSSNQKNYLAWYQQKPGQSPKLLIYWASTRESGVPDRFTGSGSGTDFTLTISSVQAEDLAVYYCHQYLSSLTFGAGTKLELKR : 10

// switching to the query binder
What the record says about S009-F8-22.23 (antibody, human IgG1, kappa, V domains shown, human-murine chimeric antibody, human IgG1/kappa constant regions) VH: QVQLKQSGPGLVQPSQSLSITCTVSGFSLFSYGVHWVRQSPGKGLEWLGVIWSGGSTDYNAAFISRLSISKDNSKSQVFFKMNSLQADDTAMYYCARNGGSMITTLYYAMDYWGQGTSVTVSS VL: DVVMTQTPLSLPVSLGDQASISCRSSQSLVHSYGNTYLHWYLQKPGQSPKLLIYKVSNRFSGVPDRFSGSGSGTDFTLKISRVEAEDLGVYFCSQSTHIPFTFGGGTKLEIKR : competition rate is 60.3
